target: fungal (fACC2) (UniProt Q00955); conditions: read-out: fACC2 (in vitro ACC2 Inhibition Assay, IC50); Table 2b, additional results; ADP-Glo, 5 nM ACC2, 20 μM ATP, 20 μM acetyl-CoA
Sequence (Q00955 whole entry): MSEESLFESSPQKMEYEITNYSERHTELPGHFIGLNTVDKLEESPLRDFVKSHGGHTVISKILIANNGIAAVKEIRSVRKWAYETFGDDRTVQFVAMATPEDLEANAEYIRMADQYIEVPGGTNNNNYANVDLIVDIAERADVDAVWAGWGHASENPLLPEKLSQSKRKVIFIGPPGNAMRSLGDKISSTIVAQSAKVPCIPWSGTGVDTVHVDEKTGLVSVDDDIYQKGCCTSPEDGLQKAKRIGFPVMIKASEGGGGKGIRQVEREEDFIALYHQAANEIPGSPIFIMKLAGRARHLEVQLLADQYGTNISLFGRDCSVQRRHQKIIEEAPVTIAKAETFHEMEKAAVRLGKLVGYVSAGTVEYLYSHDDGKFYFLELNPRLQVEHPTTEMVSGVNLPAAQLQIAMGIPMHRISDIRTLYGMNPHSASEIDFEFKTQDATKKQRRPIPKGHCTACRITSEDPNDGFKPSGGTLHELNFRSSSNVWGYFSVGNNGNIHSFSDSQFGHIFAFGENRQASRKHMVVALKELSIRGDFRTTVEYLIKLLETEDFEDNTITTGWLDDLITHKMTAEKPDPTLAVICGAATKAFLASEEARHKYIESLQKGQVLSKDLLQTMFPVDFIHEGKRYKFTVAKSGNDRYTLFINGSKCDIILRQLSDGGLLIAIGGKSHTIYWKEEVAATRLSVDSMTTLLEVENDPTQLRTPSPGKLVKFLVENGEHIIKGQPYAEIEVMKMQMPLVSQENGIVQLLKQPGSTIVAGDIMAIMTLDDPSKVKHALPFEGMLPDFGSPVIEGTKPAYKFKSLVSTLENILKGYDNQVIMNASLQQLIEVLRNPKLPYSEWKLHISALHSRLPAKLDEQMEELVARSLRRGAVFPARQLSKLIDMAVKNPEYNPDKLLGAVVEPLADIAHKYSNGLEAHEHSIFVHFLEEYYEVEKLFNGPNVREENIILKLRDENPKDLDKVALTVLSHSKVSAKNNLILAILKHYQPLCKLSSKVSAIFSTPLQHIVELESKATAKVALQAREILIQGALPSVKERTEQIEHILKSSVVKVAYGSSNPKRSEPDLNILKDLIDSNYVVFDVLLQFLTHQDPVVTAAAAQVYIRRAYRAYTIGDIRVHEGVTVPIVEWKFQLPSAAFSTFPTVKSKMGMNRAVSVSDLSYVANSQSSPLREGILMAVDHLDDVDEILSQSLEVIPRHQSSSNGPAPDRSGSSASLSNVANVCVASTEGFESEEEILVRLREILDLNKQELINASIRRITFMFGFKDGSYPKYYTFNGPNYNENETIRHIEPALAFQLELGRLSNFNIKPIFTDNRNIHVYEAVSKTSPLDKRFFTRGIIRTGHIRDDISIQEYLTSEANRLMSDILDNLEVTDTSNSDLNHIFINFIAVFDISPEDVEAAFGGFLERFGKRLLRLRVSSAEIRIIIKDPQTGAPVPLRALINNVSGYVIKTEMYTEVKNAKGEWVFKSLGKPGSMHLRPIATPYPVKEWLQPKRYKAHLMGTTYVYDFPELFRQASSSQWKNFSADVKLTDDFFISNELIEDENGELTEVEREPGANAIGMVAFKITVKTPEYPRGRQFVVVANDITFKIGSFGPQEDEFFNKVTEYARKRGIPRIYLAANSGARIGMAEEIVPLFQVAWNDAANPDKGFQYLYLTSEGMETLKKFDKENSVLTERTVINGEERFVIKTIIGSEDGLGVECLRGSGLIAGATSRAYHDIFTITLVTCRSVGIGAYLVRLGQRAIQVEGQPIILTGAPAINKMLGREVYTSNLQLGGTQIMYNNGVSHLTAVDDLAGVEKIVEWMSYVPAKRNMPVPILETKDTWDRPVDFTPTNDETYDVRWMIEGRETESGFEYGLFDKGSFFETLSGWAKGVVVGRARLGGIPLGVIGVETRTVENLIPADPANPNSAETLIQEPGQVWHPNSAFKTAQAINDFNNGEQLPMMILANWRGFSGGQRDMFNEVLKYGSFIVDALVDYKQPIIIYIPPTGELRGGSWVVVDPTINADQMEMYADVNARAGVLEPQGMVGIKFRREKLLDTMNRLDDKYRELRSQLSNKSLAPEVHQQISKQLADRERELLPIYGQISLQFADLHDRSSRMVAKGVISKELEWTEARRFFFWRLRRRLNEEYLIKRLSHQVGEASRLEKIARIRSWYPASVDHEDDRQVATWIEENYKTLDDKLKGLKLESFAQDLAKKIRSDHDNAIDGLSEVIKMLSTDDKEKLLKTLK
pIC50: −log10 of the molar value.
PROPERTY LABEL: pIC50

Some solved cases for reference:
COc1ccc(F)cc1[C@H](Cn1c(=O)n(C(C)(C)C(=O)NC(C)C)c(=O)c2c(C)c(-n3nccn3)sc21)O[C@H]1CC[C@@H](C(=O)O)CC1	8.30 to 9.00
CCc1ccc(F)cc1[C@H](Cn1c(=O)n(C(C)(C)C(=O)NC2CCC2)c(=O)c2c(C)c(-n3nccn3)sc21)OC1CCOCC1	8.30 to 9.00
Cc1c(-n2nccn2)sc2c1c(=O)n(C(C)(C)C(=O)NC(C)C)c(=O)n2C[C@H](OCCC#N)c1ccccc1O	9.00 to 9.52
CCNC(=O)C(C)(C)n1c(=O)c2c(C)c(-n3nccn3)sc2n(C[C@H](OC(C)C)c2cc(F)ccc2OC)c1=O	8.30 to 9.00
CCc1ccc(F)cc1[C@H](Cn1c(=O)n(C(C)(C)C(=O)NC(C)C)c(=O)c2c(C)c(-n3nccn3)sc21)OCC(C)(C)C#N	8.30 to 9.00

Turning to the following molecule.
Input: Look up and state reported pIC50 for `COc1ccc(F)cc1[C@H](Cn1c(=O)n([C@H](C)C(=O)N(C)C(C)C)c(=O)c2c(C)c(-n3nccn3)sc21)OC1CCC(=O)CC1`
Output: 8.30 to 9.00

====

target: fungal (fACC2); settings: read-out: fACC2 (in vitro ACC2 Inhibition Assay, IC50); Table 2a; ADP-Glo, 5 nM ACC2, 20 μM ATP, 20 μM acetyl-CoA
PROPERTY LABEL: IC50

For orientation, consider the following solved cases.
COCCO[C@@H](Cn1c(=O)n([C@H](C)C(=O)NC(C)C)c(=O)c2c(C)c(-n3nccn3)sc21)c1cc(F)ccc1OC	1 to 5 nM
COc1ccc(F)cc1[C@H](Cn1c(=O)n([C@@H](C)C(=O)N(C)C(C)C)c(=O)c2c(C)c(-n3nccn3)sc21)OCC(C)(C)O	0.4 to 1 nM
COc1ccc(F)cc1[C@H](Cn1c(=O)n(CC(=O)NC(C)C)c(=O)c2c(C)c(-n3nccn3)sc21)OC(C)C	1 to 5 nM
COc1ccc(F)cc1[C@H](Cn1c(=O)n(C(C)(C)C(=O)NC(C)C)c(=O)c2c(C)c(-n3nccn3)sc21)OCCC(N)=O	1 to 5 nM
COc1ccc(F)cc1[C@H](Cn1c(=O)n(C(C)(C)C(=O)N2CC=CC2)c(=O)c2c(C)c(-n3nccn3)sc21)OC[C@H](C)O	0.4 to 1 nM

Input: Report the value of IC50 obtained on fungal (fACC2) for `COc1ccc(F)cc1[C@H](Cn1c(=O)n(C(C)(C)C(=O)NC(C)(C)C)c(=O)c2c(C)c(-n3nccn3)sc21)OCCCO` .
Output: 1 to 5 nM

Input: Look up fungal (fACC2) data: IC50 of `COCCO[C@@H](Cn1c(=O)n(C(C)(C)C(=O)OC(C)C)c(=O)c2c(C)c(-n3nccn3)sc21)c1cc(F)ccc1OC` , then report it.
Output: 1 to 5 nM

Input: Write down measured IC50 (fungal (fACC2)) for this molecule. `COc1ccc(F)cc1[C@H](Cn1c(=O)n(C(C)(C)C(=O)NC2CCCCC2)c(=O)c2c(C)c(-n3nccn3)sc21)OCC(C)=O`
Output: 1 to 5 nM
